# Tested on: S. cerevisiae Burl-1 ts mutant growth, BacTiter-Glo, 38.5C 24 h
# assay.text: restored growth of temperature-sensitive Burl-1 yeast – whole organism, S. cerevisiae, Burl-1 ts mutant, luminescence, counter-screen for SUMOylation pathway inhibitor project, dose response (AID 463199)
Active and inactive are the calls of the source.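 The calls were made as follows: active = AC50, the dose giving half-maximal effect, exceeds a fixed cutoff for a compound that rescues yeast growth under heat; inactive = the rest, inconclusive results apart.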
Select the matching outcome among true (1) = active, false (0) = inactive

// known answers, use as guide
* O=C1CN(C(=O)c2ccccc2F)C(c2ccccc2)c2cc(Cl)ccc2N1 (centres undefined) | false (0)
* Cc1[nH]n(-c2ccccc2)c(=O)c1C(C[N+](=O)[O-])c1ccc(Br)cc1 (centres undefined) | true (1)
* O=C(Cn1cnc2ccccc2c1=O)c1ccc(OC(F)F)cc1 | false (0)

Next compound, please.
Input line: Short answer needed: outcome of this test for Cc1ccc(S(=O)(=O)Nc2n[nH]nc2C(=O)NC2CCCCC2)cc1 ?
Output line: false (0)

---

# Tested on: S. cerevisiae Burl-1 ts mutant growth, BacTiter-Glo, 38.5C 24 h
# assay.text: restored growth of temperature-sensitive Burl-1 yeast – whole organism, S. cerevisiae, Burl-1 ts mutant, luminescence, counter-screen for SUMOylation pathway inhibitor project, dose response (AID 463199)
The source made the active and inactive calls.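 Rule for the calls: active = AC50, the dose giving half-maximal effect, exceeds a fixed cutoff for a compound that rescues yeast growth under heat; inactive = the rest, inconclusive results apart.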
Consider the following molecules and their measured AC50 readings.

These solved cases illustrate the format of a correct answer.
- Cc1sc(NC(=O)c2ccco2)c(C(c2ccc(F)cc2)N2CCN(C)CC2)c1C (stereo not drawn): > 42 µM (inactive)
- CCC(C)N1C(=O)CN(C2CCCCCC2)C(=O)C1c1ccccc1F (stereo not drawn): > 42 µM (inactive)

Would you kindly look at the next entry?
Input line: Which AC50 is reported for this molecule? COc1ccc(C2=NN(C(=S)Nc3ccccc3)C(c3ccccc3)C2)cc1 (stereo not drawn)
Output line: > 42 µM (inactive)
